# credit: PubChem BioAssay (NCI)

Tested on: MDA-MB-231 breast
Test: NCI-60 one-dose screen, 48 h (100 = growth as untreated, 0 = no growth, -100 = all killed)
Settings: 10 µM unless noted
About 83,000 compounds went through this panel and 20% of them were active in at least one assay; those are over-represented in the sample as a whole.
Decision: growth beneath 60% gives TRUE; growth meeting or exceeding 60% gives FALSE.

* O=C(Cc1ccccc1)Nc1nnc(NC2CCN(c3nnc(NC(=O)Cc4ccccc4)s3)CC2)s1 | FALSE
* CC(C)c1ccc(/C=N/Nc2nc3ccccc3s2)cc1 | FALSE
* Clc1nc(Cl)c2ncn(C/C=C\Cn3cnc4c(Cl)nc(Cl)nc43)c2n1 | TRUE

Turning now to a further record.
## Task Is it true that growth reported for `COc1cc2ncnc(Oc3cccc(NC(=O)Nc4cc(C(C)(C)C(F)(F)F)on4)c3)c2cc1OC` is less than 60%?
## Result TRUE

----------
System: 786-0 renal
Assay: NCI-60 one-dose screen, 48 h (100 = growth as untreated, 0 = no growth, -100 = all killed)
Conditions: 10 µM unless noted
Compounds without any hit were thinned out: in the full panel of roughly 83,000, 20% have a hit.
Can you tell me growth for the items I'm about to list?
One number for each entry, in %.

• Cn1cnc(-c2cc3nccc(Oc4ccc(NC(=S)NC(=O)Cc5ccccc5)cc4F)c3s2)c1 = 98.1
• C=CC(=O)N1CCC[C@H](n2c(=O)n(-c3ccc(Oc4ccccc4)cc3)c3c(N)ncnc32)C1 = 85.3
• C[C@H]1Oc2cc(cnc2N)-c2c(nn(C)c2C#N)CN(C)C(=O)c2ccc(F)cc21 = 77.9
• Cc1cc(C(O)CN(C)C)cc2c1ccc1cc(C(C)C)ccc12 (centres undefined) = 14.5

Batch: growth for all items listed.
1. CCS(=O)(=O)N1CCN(c2ccc(Nc3ncc(C(N)=O)c(NC4CC4)n3)cc2)CC1
2. CC[C@H](Nc1ncnc2nc[nH]c12)c1nc2cccc(F)c2c(=O)n1-c1ccccc1

## Result
1. 89
2. 37.5

----------
System: KM12 colon
Assay: NCI-60 one-dose screen, 48 h (100 = growth as untreated, 0 = no growth, -100 = all killed)
Conditions: 10 µM unless noted
This is part of a sample that, as a whole, favours compounds with a hit. Of some 83,000 tested, about 20% had one in any assay.
quantity.kind: growth (%)
Give bare numbers, in %.

Consider the reported growth for these compounds:
• N#Cc1c(-c2ccc(C(F)(F)F)cc2)cc(NCC2CCS(=O)(=O)CC2)n2c1nc1ccccc12 = 98.4
• O=C1CC(c2ccc(Cl)cc2)c2ncn(-c3cccc(Cl)c3)c2N1 (stereo not given) = 54.1
• Cc1cccc(C)c1N1C(c2ccccc2)=NNC12C=CC(=O)c1c(O)cccc12 (stereo not given) = 75.9
• COc1cc(NCCCN)c2ncccc2c1 = 68.2

Now take the following compound into account.
## Task Data request, read-out growth, for `N#CC[C@H](C1CCCC1)n1cc(-c2ncnc3[nH]ccc23)cn1`
## Result 19.1

----------
Tested on: NCI-H322M lung
Test: NCI-60 one-dose screen, 48 h (100 = growth as untreated, 0 = no growth, -100 = all killed)
Conditions: 10 µM unless noted
Compounds without any hit were thinned out: in the full panel of roughly 83,000, 20% have a hit.
quantity.kind: growth (%)
One number for each entry, in %.

Consider the reported growth for these compounds:
- CCOC(=O)Sc1ncnc2nc[nH]c12: 40.4
- Nc1ccc(S(=O)(=O)O)c2cc(S(=O)(=O)O)cc(O)c12: 117
- OCCNC(=S)Nc1ccc(-c2nc(N3C[C@H]4CC[C@@H](C3)O4)c3cccn3n2)cc1: 19.3

Batch: growth for all items listed.
1. C=CC(=O)Nc1cc2c(Nc3ccc(F)c(Cl)c3)ncnc2cc1C#CC(C)(C)N1CCN(C)CC1
2. Nc1c2c(c(O)c3c1=C(CO)C=N3)=NCCS2

## Result
[-86, -96]

Batch: growth for all items listed.
1. CN(C)C[C@@H]1CCn2cc(c3ccccc32)C2=C(C(=O)NC2=O)c2cn(c3ccccc23)CCO1
2. CCCCN1CCCC[C@@H]1C(=O)N[C@H](C(=O)N(C)[C@H](CCc1nc(C(=O)N[C@@H](Cc2ccccc2)C[C@H](C)C(=O)OC)cs1)C(C)C)C(C)C
3. FC(F)(F)c1ccc(CNc2ccc(Cc3c[nH]c4ncc(Cl)cc34)cn2)cn1
4. CC(C)(C)OC(=O)N1CCC(O)[C@@H](O[Si](c2ccccc2)(c2ccccc2)C(C)(C)C)[C@H]1/C=C/c1ccccc1 (some centres not stated)
5. Cc1nc(NC(=O)N2CCC[C@H]2C(N)=O)sc1-c1ccnc(C(C)(C)C(F)(F)F)c1
6. Cc1c(NC(=O)OC[C@@H]2COCCN2)cn2ncnc(Nc3ccc4c(cnn4Cc4cccc(F)c4)c3)c12

## Result
[32.2, 75.6, 33.2, 83.5, 6.7, -1.86]

Batch: growth for all items listed.
1. CC(C)(C)c1cnc(CSc2cnc(NC(=O)C3CCNCC3)s2)o1
2. Cc1nc(-c2cn3c(n2)-c2ccc(-c4cnn(C(C)(C)C(N)=O)c4)cc2OCC3)n(C(C)C)n1

## Result
1. 5.62
2. 2.09

Batch: growth for all items listed.
1. C#Cc1cccc(Nc2ncnc3cc(OCCOC)c(OCCOC)cc23)c1
2. COC(=O)C1=C(C(=O)OC)C23C=C(C)C1C2=C(C)C1(CC1)[C@@](C)(O)C3=O (some centres not stated)
3. CCc1cnn2c(NCc3ccc[n+]([O-])c3)cc(N3CCCC[C@H]3CCO)nc12
4. Cc1cc([C@@H](C)Nc2ccccc2C(=O)O)c2nc(N3CCOCC3)cc(=O)n2c1
5. O=C(c1ccc(/C=C/c2n[nH]c3ccccc23)cc1)N1CCNCC1
6. CC(=O)CC1CCCC1c1ccc2ccccc2c1 (configuration not stated)
7. Cc1cc2c(-c3nc4ccccn4c3NC3CCCCC3)c(O)c(O)cc2c(O)c1-c1c(C)cc2c(-c3nc4ccccn4c3NC3CCCCC3)c(O)c(O)cc2c1O
8. O=C(Nc1ccc(Nc2ncnc3sc4c(c23)CCOC4)cc1)Nc1ccc(Cl)c(C(F)(F)F)c1

## Result
0.463
-9.66
-0.876
39.9
33.5
96.2
54.9
102
